Target: Phosphodiesterase 4 (Homo sapiens, UniProt P27815+Q08499+Q07343+Q08493)
Test: Inhibition of PDE4 in human U937 cells at 1 uM after 30 mins by electrochemiluminescence based immunoassay
Type: cell-based
Conditions: U-937
measure: inhibition (%)
Answers are plain numbers, in %.

CCn1nc(C(=O)OC(C)C)c2c(C)n(-c3cccc([N+](=O)[O-])c3)nc2c1=O; 6

List reported inhibition for each of these molecules:
1. CCOC(=O)Cn1nc(C)c2c(C)n(-c3cccc([N+](=O)[O-])c3)nc2c1=O
2. CCN(C)C(=O)c1nn(CC)c(=O)c2nn(-c3cccc([N+](=O)[O-])c3)c(C)c12
3. CCCOC(=O)c1nn(CC)c(=O)c2nn(-c3cccc([N+](=O)[O-])c3)c(C)c12

1: 64.1; 2: -2; 3: 14

====

Target: Phosphodiesterase 4 (Homo sapiens, UniProt P27815+Q08499+Q07343+Q08493)
Test: Inhibition of PDE4 in human U937 cells after 30 mins by electrochemiluminescence based immunoassay
Format: cell-based
Details: u-937
measure: log10 IC50 (log10 of the value in µM)
Parameter value (number): base-10 log of IC50 in µM.

CCn1nc(C(=O)OC)c2c(C)n(-c3cccc([N+](=O)[O-])c3)nc2c1=O; -1.34
CCCn1nc(C(=O)OCC)c2c(C)n(-c3cccc([N+](=O)[O-])c3)nc2c1=O; -1.14
CCOC(=O)c1nn(CC)c(=O)c2nn(-c3cc(C(=O)OC)ccc3C)c(C)c12; -0.06
CCOC(=O)c1nn(CC)c(=O)c2nn(Cc3ccc(C(=O)OC)cc3)c(C)c12; 0.08
CCOC(=O)c1nn(CC)c(=O)c2nn(-c3c(Cl)cccc3Cl)c(C)c12; -0.63
CCOC(=O)c1nn(CC)c(=O)c2nn(-c3ccccc3C)c(C)c12; -1.23
CCOC(=O)c1nn(CC)c(=O)c2nn(-c3ccccc3)c(C)c12; -0.52
CCOC(=O)c1nn(CC)c(=O)c2nn(-c3ccccc3Cl)c(C)c12; -1.49
CCOC(=O)c1nn(CC2CC2)c(=O)c2nn(-c3ccccc3Cl)c(C)c12; -0.43
CCOC(=O)c1nn(CC)c(=O)c2nn(-c3cc(C(N)=O)ccc3Cl)c(C)c12; -0.12

List reported log10 IC50 for each of these compounds:
1. CCOC(=O)c1nn(CC)c(=O)c2nn(-c3cccc([N+](=O)[O-])c3)c(C)c12
2. CCOC(=O)c1nn(CC)c(=O)c2nn(Cc3ccc([N+](=O)[O-])cc3)c(C)c12
3. CCn1nc(C)c2c(C)n(-c3cccc([N+](=O)[O-])c3)nc2c1=O

1: -1.12; 2: 0.06; 3: -0.41

====

Target: Phosphodiesterase 4 (Homo sapiens, UniProt P27815+Q08499+Q07343+Q08493)
Experiment: Inhibition of PDE4 in human U937 cells at 1 uM after 30 mins by electrochemiluminescence based immunoassay
Assay type: cell-based
Details: U-937
measure: inhibition (%)
Give bare numbers, in %.

CCn1nc(-c2ccncc2)c(C#N)c1/C=C/c1cccc2ccccc12; 19
CCOC(=O)CCn1nc(-c2ccccc2)c2c(C)n(-c3cccc([N+](=O)[O-])c3)nc2c1=O; 1

List reported inhibition for each of these compounds:
1. CCn1nc(C(=O)NC)c2c(C)n(-c3cccc([N+](=O)[O-])c3)nc2c1=O
2. CCn1nc(CO)c2c(C)n(-c3ccccc3Cl)nc2c1=O
3. CCOC(=O)CCn1nc(C)c2c(C)n(-c3cccc([N+](=O)[O-])c3)nc2c1=O
4. Cc1nn(C)c(/C=C/c2ccccc2)c1C#N
5. CCn1nc(COC)c2cn(-c3ccccc3Cl)nc2c1=O
6. Cc1nn(C)c(CCc2ccccc2)c1C#N

1. 14
2. -4
3. 4
4. 1.3
5. 65
6. 2.1

List reported inhibition for each of these compounds:
1. CCn1nc(C(=O)O)c2c(C)n(-c3cccc([N+](=O)[O-])c3)nc2c1=O
2. COc1ccc(CCc2c(C#N)c(-c3ccccc3)nn2C)cc1OC

1. 2
2. 14

List reported inhibition for each of these compounds:
1. CCn1nc(COC)c2c(C)n(-c3ccccc3Cl)nc2c1=O
2. CCn1nc(-c2ccccc2)c(C#N)c1/C=C/c1ccccc1C(=O)O
3. CCn1nc(C#N)c2c(C)n(-c3ccccc3Cl)nc2c1=O

1. 41
2. 6
3. -2

List reported inhibition for each of these compounds:
1. CCn1nc(C(=O)Nc2c(Cl)cncc2Cl)c2c(C)n(-c3ccccc3)nc2c1=O
2. CCOC(=O)c1nn(CC)c(=O)c2nn(-c3cccc(CO)c3)c(C)c12

1. 3
2. 39

List reported inhibition for each of these compounds:
1. CCn1nc(-c2ccncc2)c(C#N)c1CCc1cccc2ccccc12
2. CCOC(=O)Cn1nc(-c2ccccc2)c2c(C)n(-c3cccc([N+](=O)[O-])c3)nc2c1=O
3. COCc1nn(CC2CC2)c(=O)c2nn(-c3ccccc3Cl)cc12
4. CCn1nc(C#N)c2c(C)n(-c3c(Cl)cccc3Cl)nc2c1=O

[2.8, 1, 19, 2]

Using the record for "CCn1nc(-c2ccccc2)c2c(C)n(-c3cccc([N+](=O)[O-])c3)nc2c1=O" , report its inhibition.
47
